- System name: Glucose-dependent insulinotropic receptor (Homo sapiens)
- Test name: Agonist activity at human GPR119 expressed in HEK293 cells assessed as increase in cAMP stimulation measured after 60 mins by TR-FRET assay relative to oleoylethanolamide
- Type: functional, cell-based

Compound | %max
CC(C)(C)OC(=O)N1CC2CCC1CC2Nc1ncnc(Nc2ccc(S(C)(=O)=O)cc2)c1[N+](=O)[O-] (stereo in doubt; 27t) | 58.1%
CC(C)(C)OC(=O)N1CC2CCC1CC2Nc1ncnc(Nc2ccc(S(C)(=O)=O)cc2)c1[N+](=O)[O-] (stereo in doubt; 27r) | 78.9%
CC(C)(C)OC(=O)N1CC2CCC1CC2Oc1ncnc(Nc2ccc(S(C)(=O)=O)cc2)c1[N+](=O)[O-] (stereo in doubt; 27n) | 71.9%
CC(C)(C)OC(=O)N1CC2CC1CC2Nc1ncnc(Nc2ccc(S(C)(=O)=O)cc2F)c1[N+](=O)[O-] (stereo in doubt; 27k) | 34.8%
CC(C)(C)OC(=O)N1CC2CC1CC2Nc1ncnc(Nc2ccc(S(C)(=O)=O)cc2)c1[N+](=O)[O-] (stereo in doubt; 27l) | 25.1%
CC(C)(C)OC(=O)N1CC2CC(Nc3ncnc(Nc4ccc(S(C)(=O)=O)cc4F)c3[N+](=O)[O-])C1C2 (stereo in doubt; 27g) | 63.4%
